Hello, the source for this data is the NIST ThermoML archive (doi:10.1016/j.jct.2016.08.008), in case you need it.

assay: activity coefficient (dimensionless); of the first substance listed, at infinite dilution; xn = mol fraction of the nth substance listed; conditions: 348.15 K; 101.33 kPa; Liquid; Chromatography; x1 = 0
measuredAttribute: activity coefficient
A bare number is all that is needed in reply.

Here is how some compounds turned out for activity coefficient.
compound: CC(C)c1ccccc1 [isopropylbenzene] + CCCCCCCCCCCCn1cc[n+](C)c1.O=S(=O)([N-]S(=O)(=O)C(F)(F)F)C(F)(F)F
activity coefficient: 1.28

compound: CCC(=O)CC [pentan-3-one] + CCCCCCCCCCCCn1cc[n+](C)c1.O=S(=O)([N-]S(=O)(=O)C(F)(F)F)C(F)(F)F
activity coefficient: 0.496

Query: Consider the compound CC(C)=O [acetone] + CCCCCCCCCCCCn1cc[n+](C)c1.O=S(=O)([N-]S(=O)(=O)C(F)(F)F)C(F)(F)F and give its measured activity coefficient.
Response: 0.401

Query: Consider the compound CCCCCC [hexane] + CCCCCCCCCCCCn1cc[n+](C)c1.O=S(=O)([N-]S(=O)(=O)C(F)(F)F)C(F)(F)F and give its measured activity coefficient.
Response: 3.14

Query: Consider the compound C1CCOC1 [tetrahydrofuran] + CCCCCCCCCCCCn1cc[n+](C)c1.O=S(=O)([N-]S(=O)(=O)C(F)(F)F)C(F)(F)F and give its measured activity coefficient.
Response: 0.462

Query: Consider the compound C#CCCCCC [1-heptyne] + CCCCCCCCCCCCn1cc[n+](C)c1.O=S(=O)([N-]S(=O)(=O)C(F)(F)F)C(F)(F)F and give its measured activity coefficient.
Response: 1.65

Query: Consider the compound CC(C)CO [2-methyl-1-propanol] + CCCCCCCCCCCCn1cc[n+](C)c1.O=S(=O)([N-]S(=O)(=O)C(F)(F)F)C(F)(F)F and give its measured activity coefficient.
Response: 1.26
